Provenance of the data: patent US20050209278A1

# tested.system: MMP-14 (Homo sapiens, UniProt P50281)
# Construct: The catalytic domain enzyme was expressed in E. coli inclusion bodies, solubilized in urea; made in house
# protocol.notes: In vitro MMP inhibition, Ki determination (fluorogenic substrate II)
# Format: biochemical
# conditions.used: MMP-14 Ki, value not in parenthesis
pKi: −log10 of the molar value.
observation.type: pKi

Data request: For the compound shown here, O=C(NO)C1(S(=O)(=O)N2CCN(c3ccc(COCC(F)(F)C(F)(F)C(F)(F)C(F)F)cc3)CC2)CCOCC1 , give the reported pKi.
Data returned: < 5.00

Data request: pKi for O=C(NO)C1(S(=O)(=O)N2CCN(c3ccc(COCC(F)(F)C(F)(F)C(F)(F)F)cc3)CC2)CCOCC1 ?
Data returned: < 5.00

---

Please respond with reported pKi for every item in the list.
# tested.system: MMP-2 (Homo sapiens, UniProt P08253)
# Construct: made in house; host or cells: MMP-2-transfected p2AHT2 cells
# Sequence (P08253 110-660): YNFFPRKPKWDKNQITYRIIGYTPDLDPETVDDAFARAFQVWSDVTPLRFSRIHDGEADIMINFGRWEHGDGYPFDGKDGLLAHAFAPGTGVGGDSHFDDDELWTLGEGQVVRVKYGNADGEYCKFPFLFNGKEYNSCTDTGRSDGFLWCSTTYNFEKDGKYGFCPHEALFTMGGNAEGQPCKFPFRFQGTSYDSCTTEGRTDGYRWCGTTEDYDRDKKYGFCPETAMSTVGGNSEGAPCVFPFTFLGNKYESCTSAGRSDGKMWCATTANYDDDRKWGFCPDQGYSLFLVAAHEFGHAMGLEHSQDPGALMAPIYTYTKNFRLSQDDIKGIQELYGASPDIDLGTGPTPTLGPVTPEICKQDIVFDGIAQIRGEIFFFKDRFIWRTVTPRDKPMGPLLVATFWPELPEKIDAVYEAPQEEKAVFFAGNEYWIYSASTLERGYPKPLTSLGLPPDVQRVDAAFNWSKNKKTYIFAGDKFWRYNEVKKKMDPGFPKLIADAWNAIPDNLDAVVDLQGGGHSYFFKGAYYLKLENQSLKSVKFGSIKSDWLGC
# protocol.notes: In vitro MMP inhibition, Ki determination (fluorogenic substrate II)
# Assay type: biochemical
# conditions.used: value not in parenthesis; read-out: MMP-2 Ki
Reminder that pKi is minus the log10 of a molar concentration.

Data request: Query the reported pKi for MMP-2 (Homo sapiens, UniProt P08253); item: CCCCCc1cnc(N2CCN(S(=O)(=O)C3(C(=O)NO)CCOCC3)CC2)s1
Data returned: 8.99

Data request: Give the reported pKi for CCCCOc1ccc(N2CCN(S(=O)(=O)C3(C(=O)NO)CCN(C(=O)N4CCCC4)CC3)CC2)cc1 (system: MMP-2 (Homo sapiens, UniProt P08253)).
Data returned: 8.88

Data request: Value wanted: pKi (MMP-2 (Homo sapiens, UniProt P08253)) of entry O=C(c1cccnc1)N1CCC(C(=O)NO)(S(=O)(=O)N2CCN(c3ccc(OCCCC(F)(F)F)cc3)CC2)CC1
Data returned: 9.47

Data request: pKi of CCCCOc1ccc(N2CCN(S(=O)(=O)C3(C(=O)NO)CCN(C(=O)N4CCOCC4)CC3)CC2)cc1 on MMP-2 (Homo sapiens, UniProt P08253)?
Data returned: 9.71

Data request: GET /values?readout=pKi&system=MMP-2 (Homo sapiens, UniProt P08253)&item= CCCCc1ccc(N2CCN(S(=O)(=O)C3(C(=O)NO)CCOCC3)CC2)nc1
Data returned: 9.82

Data request: Record CCCCOc1ccc(N2CCN(S(=O)(=O)C3(C(=O)NO)CCN(CCCC(F)(F)F)CC3)CC2)cc1 : what is its pKi with MMP-2 (Homo sapiens, UniProt P08253)?
Data returned: 8.79

Data request: Tell me reported pKi for CCCCCc1ccc(N2CCN(S(=O)(=O)C3(C(=O)NO)CCN(S(C)(=O)=O)CC3)CC2)cc1 , tested with MMP-2 (Homo sapiens, UniProt P08253).
Data returned: 8.69

---

# tested.system: MMP-13 (Homo sapiens)
# Construct: made in house; host or cells: baculovirus / insect cells
# protocol.notes: MMP-13 inhibition (in vitro Ki)
# Format: biochemical
# conditions.used: Table 9; read-out: MMP-13 Ki (IC-50)
Mark Satisfied only when Ki stays strictly below 0.6 nM. Values equal to the cut-off are Not satisfied.

Data request: Please let me know if O=C(NO)C1(S(=O)(=O)N2CCC(c3ccc(/C=C/C(F)(F)C(F)(F)F)cn3)CC2)CCOCC1 shows Ki below 0.6 nM.
Data returned: Satisfied

Data request: Report whether reported Ki is lower than 0.6 nM (strictly) for CN(Cc1ccco1)C(=O)CCCC1CCN(S(=O)(=O)C2(C(=O)NO)CCOCC2)CC1
Data returned: Not satisfied

Data request: # strict comparison: is reported Ki < 0.6 nM? input = COC(=O)CCCC#Cc1ccc(C2CCN(S(=O)(=O)C3(C(=O)NO)CCOCC3)CC2)nc1
Data returned: Satisfied

Data request: Find out if reported Ki for O=C(NO)C1(S(=O)(=O)N2CCC(c3ccc(OCC4CC4)cn3)CC2)CCOCC1 is less than 0.6 nM
Data returned: Not satisfied

Data request: State whether 0.6 nM exceeds Ki recorded for CC(=O)OCCCC#Cc1ccc(C2CCN(S(=O)(=O)C3(C(=O)NO)CCOCC3)CC2)nc1 .
Data returned: Satisfied

Data request: Given the entry COCCN1CCC(C(=O)NO)(S(=O)(=O)N2CCC(c3ccc(CCC(F)(F)C(F)(F)F)cn3)CC2)CC1 , would its reported Ki be below 0.6 nM?
Data returned: Satisfied

Data request: Consider the molecule O=C(/C=C/C=C/C1CCN(S(=O)(=O)C2(C(=O)NO)CCOCC2)CC1)N1CCc2ccccc21 . Is its Ki strictly less than 0.6 nM?
Data returned: Satisfied

Data request: # TODO verify Ki < 0.6 nM strictly for this molecule: O=C(NO)C1(S(=O)(=O)N2CCC(c3ccc(CCC4CCCC4)cn3)CC2)CCOCC1
Data returned: Satisfied

Data request: For CCc1nc(-c2ccc(N3CCN(S(=O)(=O)C4(C(=O)NO)CCOCC4)CC3)cc2)no1 , is the recorded Ki below the cut-off of 0.6 nM?
Data returned: Satisfied

Data request: Item O=C(NO)C1(S(=O)(=O)N2CCC(c3ccc(-n4cccn4)cn3)CC2)CCOCC1 : Ki beneath 0.6 nM, strictly?
Data returned: Not satisfied

Data request: # check: Ki < 0.6 nM for O=C(/C=C/C=C/C1CCN(S(=O)(=O)C2(C(=O)NO)CCOCC2)CC1)N1C[C@H]2CCCC[C@H]2C1
Data returned: Not satisfied

Data request: Is it true that Ki reported for CCCCc1cnc(C2CCN(S(=O)(=O)C3(C(=O)NO)CCOCC3)CC2)nc1 is less than 0.6 nM?
Data returned: Not satisfied

Data request: Item O=C(CCCCC1CCN(S(=O)(=O)C2(C(=O)NO)CCOCC2)CC1)N1CCOCC1 : Ki beneath 0.6 nM, strictly?
Data returned: Not satisfied

Data request: Would you kindly verify if Ki of O=C(CCCCC1CCN(S(=O)(=O)C2(C(=O)NO)CCOCC2)CC1)Nc1ccc(OC(F)(F)F)cc1 is strictly less than 0.6 nM?
Data returned: Not satisfied

Data request: Strictly below 0.6 nM: is that where Ki of O=C(NO)C1(S(=O)(=O)N2CCN(c3ccc(CCC(F)(F)F)cn3)CC2)CCOCC1 sits?
Data returned: Satisfied

Data request: Dear reviewer, please state whether O=C(CCCCN1CCN(S(=O)(=O)C2(C(=O)NO)CCOCC2)CC1)N1CCCCC1 has Ki strictly beneath 0.6 nM.
Data returned: Not satisfied

Data request: Confirm or reject: Ki of O=C(/C=C/C=C/C1CCN(S(=O)(=O)C2(C(=O)NO)CCOCC2)CC1)N1Cc2ccccc2C1 lies strictly below 0.6 nM
Data returned: Not satisfied

Data request: I wonder whether COCC#Cc1ccc(C2CCN(S(=O)(=O)C3(C(=O)NO)CCOCC3)CC2)nc1 has Ki below 0.6 nM. Can you tell?
Data returned: Satisfied

Data request: Consider the molecule O=C(NO)C1(S(=O)(=O)N2CCC(c3ccc(C#CCCO)cn3)CC2)CCOCC1 . Is its Ki strictly less than 0.6 nM?
Data returned: Not satisfied

Data request: Hi there! Is Ki for O=C(/C=C/C=C/C1CCN(S(=O)(=O)C2(C(=O)NO)CCOCC2)CC1)N1CCOCC1 below 0.6 nM, do you know?
Data returned: Not satisfied

Data request: In the record for O=C(CO)N1CCC(C(=O)NO)(S(=O)(=O)N2CCC(c3ccc(CCC(F)(F)C(F)(F)F)cn3)CC2)CC1 , is Ki less than 0.6 nM?
Data returned: Satisfied

Data request: Input CCOCc1ccc(C2CCN(S(=O)(=O)C3(C(=O)NO)CCOCC3)CC2)nc1 ; condition: Ki strictly below 0.6 nM. Does it hold?
Data returned: Not satisfied

Data request: Report whether reported Ki is lower than 0.6 nM (strictly) for CC(C)CN(C)C(=O)CCCCC1CCN(S(=O)(=O)C2(C(=O)NO)CCOCC2)CC1
Data returned: Not satisfied

Data request: I'd appreciate it if you could check whether CN(C(=O)CCCN1CCN(S(=O)(=O)C2(C(=O)NO)CCOCC2)CC1)C1CCCCC1 has Ki smaller than 0.6 nM.
Data returned: Not satisfied

Data request: Regarding O=C(NO)C1(S(=O)(=O)N2CCC(c3ccc(CCC4CC4)cn3)CC2)CCOCC1 , kindly confirm whether its Ki is beneath 0.6 nM.
Data returned: Satisfied

Data request: Report whether reported Ki is lower than 0.6 nM (strictly) for CN(C(=O)/C=C/C=C/C1CCN(S(=O)(=O)C2(C(=O)NO)CCOCC2)CC1)C1CCCCC1
Data returned: Not satisfied

Data request: Hi there! Is Ki for CC(C)CN(C)C(=O)/C=C/C=C/C1CCN(S(=O)(=O)C2(C(=O)NO)CCOCC2)CC1 below 0.6 nM, do you know?
Data returned: Not satisfied

Data request: Just wondering, is Ki of O=C(NO)C1(S(=O)(=O)N2CCC(c3ccc(CCC4CCC4)cn3)CC2)CCOCC1 below 0.6 nM?
Data returned: Satisfied

Data request: Dear reviewer, please state whether CC(F)(F)COc1ccc(C2CCN(S(=O)(=O)C3(C(=O)NO)CCOCC3)CC2)nc1 has Ki strictly beneath 0.6 nM.
Data returned: Not satisfied

Data request: Hello, I'm reviewing records and need to know if Ki of CCCCC#Cc1ccc(C2CCN(S(=O)(=O)C3(C(=O)NO)CCOCC3)CC2)nc1 is below 0.6 nM. Could you check?
Data returned: Satisfied
